- Test system: MDA-MB-435 melanoma
- assay-info: NCI-60 one-dose screen, 48 h
- measurement-setup: 10 µM unless noted
The panel holds about 83,000 compounds, 20% with a hit somewhere; the sample as a whole holds those more often. The source made the active and inactive calls. The calls were made as follows: active = growth percent below 10; inactive = the rest.
Give your call using only these classes: active, inactive

Please review the entries below; each comes with its answer.
Given Cc1ccc(C(=O)Nc2ccc(CN3CCN(C)CC3)c(C(F)(F)F)c2)cc1C#Cc1cncc2ncccc12 , state the outcome it received in this test. active

Also, CCCCCN1CCN(C(CC(=O)c2ccccc2)C(=O)c2ccccc2)CC1 (centres undefined) please. inactive

Also, COC(=O)c1ccc(C(=Nc2ccc(N(C)C(=O)CN3CCN(C)CC3)cc2)c2c(O)[nH]c3ccc(C(=O)OC)cc23)cc1 please. inactive

New cases:
Given COc1cc(-c2nc3c(c(C)nc4c3nnn4-c3ccccc3)c(=O)o2)cc(OC)c1OC , state the outcome it received in this test. inactive

Also, CC1(C)Oc2cc3oc(=O)ccc3cc2C[C@@H]1OCCOS(=O)(=O)c1ccc(C#N)cc1 please. inactive

Also, COc1cccc(CNC(=O)c2cccc(C3CC(=O)c4c(cc(OC)c(OC)c4OC)O3)c2)c1 (centres undefined) please. active

Also, Cc1ccc(C(=O)Nc2ccc(CN3CCN(C)CC3)c(C(F)(F)F)c2)cc1C#Cc1cnc(N)c2ccc(F)cc12 please. active

Also, O=C(Nn1cnc2ccccc21)N1CCCC1 please. inactive

Also, CCOC(=O)NNc1[nH]c(-c2ccc(OC)cc2)cc1C#N please. inactive

Also, Cc1cc2cn3c4ccc(O)cc4[nH]c(=O)c3c2cc1C please. active

Also, O=C1CSC(c2ccccc2Cl)N1c1nnc(-c2ccncc2)o1 (centres undefined) please. inactive

Also, CCCCn1c(Cc2ccc(OC)cc2)nc2cc(OC)c(OC)cc2c1=O please. inactive

Also, O=C1OC(c2ccc(-c3ccccc3)cc2)=C/C1=C/c1c2ccccc2cc2ccccc12 please. inactive

Also, O=C(Nc1ccc(-n2cc(-c3ccncc3)c(-c3ccc(Cl)c(O)c3)n2)cc1)c1ccc(Cl)c(Cl)c1 please. inactive

Also, COC(=O)Nc1nc2ccc(C(=O)c3ccccc3N(C)C3COC3)cc2[nH]1 please. active

Also, C[C@]12C=CC(=O)C=C1[C@@H](F)C[C@@H]1[C@@H]2[C@@H](O)C[C@@]2(C)[C@H]1CC[C@]2(O)C(=O)CO please. inactive

Also, [2H]c1nc(=Nc2cc(NC(=O)C=C)c(N(C)CCN(C)C)cc2OC)[nH]c(-c2cn(C([2H])([2H])[2H])c3ccccc23)c1[2H] please. inactive

Also, CC(=O)Nc1ccc(S(=O)(=O)Cl)cc1 please. inactive

Also, COc1cc(-c2nn(-c3ccc(NC(=O)Nc4ccc(Cl)c(C(F)(F)F)c4)cc3)cc2-c2ccncc2)ccc1Cl please. active

---

- System: HS 578T breast
- assay-info: NCI-60 one-dose screen, 48 h
- measurement-setup: 10 µM unless noted
About 83,000 compounds went through this panel and 20% of them were active in at least one assay; those are over-represented in the sample as a whole. Active and inactive are the calls of the source. Rule for the calls: active = growth percent below 10; inactive = the rest.
Give your call using only these classes: label 1 for active, label 0 for inactive

Please review the entries below; each comes with its answer.
Given c1cc[c]([Bi]([c]2ccccc2)[c]2ccccc2)cc1 , state the outcome it received in this test. label 0

Also, COc1ccc(Cn2cc3c(c2-c2ccc(O)cc2)CCc2cnoc2-3)cc1 please. label 1

Also, COc1cc(-c2cc3cnccc3c3nc(N)c4ccncc4c23)cc(OC)c1OC please. label 0

New cases:
Given COc1ccc(-c2nnc(SCC(=O)Nc3ccc(C(=O)/C=C/c4cc(OC)c(OC)c(OC)c4)cc3)n2-c2ccccc2)cc1OC , state the outcome it received in this test. label 1

Also, COc1ccc(/C=C(/C(=O)N2CCN(c3ccc(C)cc3)CC2)c2cc(OC)c(OC)c(OC)c2)cc1N please. label 0

Also, COc1cc2c(cc1OC)C(Cc1cc(OC)c(OC)cc1[N+](=O)[O-])=NCC2 please. label 0

Also, CN1NC(c2ccccc2)NN(C)C1=O please. label 0

Also, Cc1ccnc2c(NC(C)CCCN)cc(O)c(O)c12 (stereo not given) please. label 0

Also, COC1NC(Cl)=C(C#N)C(C#N)(C#N)C1(C)C (stereo not given) please. label 0

Also, Cc1[nH]n(C(=S)Nc2nc3cc(Cl)c(F)cc3s2)c(=O)c1N=Nc1ccc(F)c(Cl)c1 please. label 0

Each recorded value in this set is attributed to PubChem BioAssay (NCI).
